B1: SLC6A17 (parent)
chain: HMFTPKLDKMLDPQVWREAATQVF

Variants of: B1
assay.method.text: protein stability index of a GFP-peptide fusion (GPS, HEK-293T) (PSI 1-6); higher = more stable;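 note: lentivirally expressed fusions sorted by FACS into six bins by GFP to DsRed ratio, PSI derived from sequencing read proportions per bin multiplied by bin number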
experimental.conditions: c terminus: a fixed tail appended
measured.parameter: protein stability index
Field format: numeric only.

Known protein stability index results, listed for orientation:
[
  {
    "variant.label": "P5R",
    "protein stability index": 1.78
  },
  {
    "variant.label": "Q22L",
    "protein stability index": 1.68
  },
  {
    "variant.label": "R17V",
    "protein stability index": 2.18
  },
  {
    "variant.label": "Q22R",
    "protein stability index": 1.77
  },
  {
    "variant.label": "L7F",
    "protein stability index": 1.8
  }
]

Query block: Consider the variant shown here: L11G What is its recorded protein stability index?
Result block: 2.9

Query block: Using the record for L11M , report its protein stability index.
Result block: 2.05

Query block: protein stability index for R17G ?
Result block: 2

Query block: So what does the record say about protein stability index for V23Y ?
Result block: 2.17

Query block: Recorded protein stability index of V15C , please.
Result block: 2.12

Query block: Reported protein stability index for P5M : what is it?
Result block: 1.03

Query block: Please look up its protein stability index: P5E
Result block: 2.4

Query block: So what's the measured protein stability index for this one? R17S
Result block: 2.8

Query block: If you can, please state the reported protein stability index value of D8W .
Result block: 1.86
